system.tested: AgifOBP7 (Aphidius gifuensis, UniProt A0A3S9LWE5)
Sequence (A0A3S9LWE5 entry or part of it): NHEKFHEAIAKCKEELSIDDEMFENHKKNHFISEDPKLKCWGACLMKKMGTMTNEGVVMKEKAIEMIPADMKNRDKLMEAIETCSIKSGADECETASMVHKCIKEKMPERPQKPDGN
measurement.notes: Binding of fluorescent probe 1-NPN to AgifOBP7
experimental.parameters: 2 μM protein, 50 mM Tris-HCl pH 7.4; read-out: dissociation constant of AgifOBP7/1-NPN complex
outcome.measure: Kd (µM)
Write the number in µM without appending the unit.

// recorded Kd for c1ccc(Nc2cccc3ccccc23)cc1 [1-NPN, N-phenyl-1-naphthylamine] : 1.69

----------
system.tested: AgifOBP9 (Aphidius gifuensis, UniProt A0A3Q9EL79, L121S)
Sequence (A0A3Q9EL79 entry or part of it L121S): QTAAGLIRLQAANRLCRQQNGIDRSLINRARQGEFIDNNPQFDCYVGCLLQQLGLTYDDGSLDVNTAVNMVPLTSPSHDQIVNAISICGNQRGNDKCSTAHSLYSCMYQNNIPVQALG
measurement.notes: Fluorescence competitive binding assay (1-NPN displacement) with recombinant AgifOBP9
experimental.parameters: displacement of 1-NPN, 2 μM protein, Tris-HCl pH 7.4; Ki = [IC50]/(1+[1-NPN]/K1-NPN); means ± SD, three replicates; listed as (-)-α-pinene; read-out: OBP9 Ki
outcome.measure: Ki

# lookup: CC1=CCC2CC1C2(C)C (stereo not drawn) [(-)-α-Pinene] on AgifOBP9 (Aphidius gifuensis, UniProt A0A3Q9EL79, L121S), Ki = < 10 µM

----------
system.tested: AgifOBP9 (Aphidius gifuensis, UniProt A0A3Q9EL79, L121S)
measurement.notes: Fluorescence competitive binding assay (1-NPN displacement) with recombinant AgifOBP9
outcome.measure: IC50 (µM)
Field format: number, assumed µM, no unit text.

Please review the entries below; each comes with its answer.
1. COc1cccc(C(=O)OC/C=C(\C)CCC=C(C)C)c1O [CAU-II-11]; 4.15
2. CC/C=C\CCO [cis-3-Hexenol]; 17
3. COC(=O)c1ccccc1O [Methyl salicylate]; 13.3

The compound listed as CC(=O)CCC=C(C)C [6-Methyl-5-hepten-2-one] shows IC50 equal to 22.3

----------
system.tested: AgifOBP9 (Aphidius gifuensis, UniProt A0A3Q9EL79, L121S)
measurement.notes: Fluorescence competitive binding assay (1-NPN displacement) with recombinant AgifOBP9
experimental.parameters: displacement of 1-NPN, 2 μM protein, Tris-HCl pH 7.4; Ki = [IC50]/(1+[1-NPN]/K1-NPN); means ± SD, three replicates; listed as (+)-limonene; read-out: OBP9 Ki
outcome.measure: Ki

The value of Ki measured for the molecule C=C(C)C1CC=C(C)CC1 (single isomer, unassigned; (+)) [(+)-Limonene] turned out to be < 10 µM

----------
Listing of recorded Ki by entry.
system.tested: AgifOBP7 (Aphidius gifuensis, UniProt A0A3S9LWE5)
measurement.notes: Fluorescence competitive binding assay (1-NPN displacement) with recombinant AgifOBP7
experimental.parameters: displacement of 1-NPN, 2 μM protein, Tris-HCl pH 7.4; Ki = [IC50]/(1+[1-NPN]/K1-NPN); means ± SD, three replicates; read-out: OBP7 Ki
Expressed in µM, but write only the number.

1. CC1=COC(=O)[C@H]2[C@@H]1CC[C@@H]2C [(4aSR 7SR 7aRS)-Nepetalactone]; 16.1

Okay, now this compound:
Lab book: Ki of C=CC(=C)CC/C=C(\C)CCC=C(C)C [(E)-β-Farnesene] noted as 20.3

----------
system.tested: AgifOBP9 (Aphidius gifuensis, UniProt A0A3Q9EL79, L121S)
measurement.notes: Fluorescence competitive binding assay (1-NPN displacement) with recombinant AgifOBP9
experimental.parameters: displacement of 1-NPN, 2 μM protein, Tris-HCl pH 7.4; Ki = [IC50]/(1+[1-NPN]/K1-NPN); means ± SD, three replicates; read-out: OBP9 Ki
Response field label: string, one of yes (Ki strictly below 3 µM) or no.

1. C=C(C)C1CC=C(C)CC1 (single isomer, unassigned; (+)) [(+)-Limonene]; no
2. C=CC(=C)CC/C=C(\C)CCC=C(C)C [(E)-β-Farnesene]; no
3. CC1=CCC2CC1C2(C)C (stereo not drawn) [(-)-α-Pinene]; no

Please turn your attention to the following entry.
Q. Take the molecule CC1=COC(=O)[C@H]2[C@@H]1CC[C@@H]2C [(4aSR 7SR 7aRS)-Nepetalactone] and say whether its Ki is less than 3 µM.
A. yes
